Data provenance is ChEMBL document CHEMBL3885861.

Below: a set of entries, each annotated with reported Fbg.
# Species: Rattus norvegicus
# test-name: Open TG-GATES - Regimen: Single
# Format: toxicity, organism-based, Sprague-Dawley
# Parameters: regimen Single, gender Male, age 6 weeks
# measurement-parameters: in vivo, po, 0 mg/kg, 6 h, tissue Blood, route gavage, dose level Control
Give the quantity in mg/dL, number only.

compound	units	Fbg
CCOC(=O)[C@H](CCc1ccccc1)N[C@@H](C)C(=O)N1CCC[C@H]1C(=O)O	mg/dL	205.2
CN1C(C(=O)Nc2ccccn2)=C(O)c2sc(Cl)cc2S1(=O)=O [LORNOXICAM]	mg/dL	221.2

Quick one: Fbg for COc1cc([C@@H]2c3cc4c(cc3[C@@H](O[C@@H]3O[C@@H]5CO[C@@H](C)O[C@H]5[C@H](O)[C@H]3O)[C@H]3COC(=O)[C@H]23)OCO4)cc(OC)c1O [ETOPOSIDE] ?
201.6

Quick one: Fbg for CN(C)[C@@H]1C(O)=C(C(N)=O)C(=O)[C@@]2(O)C(O)=C3C(=O)c4c(O)cccc4[C@@](C)(O)[C@H]3C[C@@H]12 [TETRACYCLINE] ?
200.2

Quick one: Fbg for C#C[C@]1(O)CC[C@H]2[C@@H]3CCC4=Cc5oncc5C[C@]4(C)[C@H]3CC[C@@]21C [DANAZOL] ?
300.6

Quick one: Fbg for CC(CN1c2ccccc2Sc2ccccc21)N(C)C (stereo not given) [PROMETHAZINE] ?
310.8

Quick one: Fbg for CC(=O)Nc1nnc(S(N)(=O)=O)s1 [ACETAZOLAMIDE] ?
320.2

----------
# Organism: Rattus norvegicus
# test-name: Open TG-GATES - Regimen: Single
# Type: toxicity, organism-based, Sprague-Dawley
# Parameters: regimen Single, gender Male, age 6 weeks
# measurement-parameters: in vivo, po, 0 mg/kg, 6 h, tissue Plasma, route gavage, dose level Control
observable: RALB (g/dL)
Give the quantity in g/dL, number only.

Consider the following illustrative entries.
compound	units	RALB
CC(=O)Nc1nnc(S(N)(=O)=O)s1 [ACETAZOLAMIDE]	g/dL	3
Clc1c(Cl)c(Cl)c(Cl)c(Cl)c1Cl	g/dL	3.3
C#C[C@]1(O)CC[C@H]2[C@@H]3CCC4=Cc5oncc5C[C@]4(C)[C@H]3CC[C@@]21C	g/dL	3
CCOC(=O)[C@H](CCc1ccccc1)N[C@@H](C)C(=O)N1CCC[C@H]1C(=O)O	g/dL	3.7

As a next step, examine the compound that follows.
Quick one: RALB for `CN1C(C(=O)Nc2ccccn2)=C(O)c2sc(Cl)cc2S1(=O)=O` ?
3.4

----------
# Species on record: Rattus norvegicus
# test-name: Open TG-GATES - Regimen: Single
# Type: toxicity, organism-based, Sprague-Dawley
# Parameters: regimen Single, gender Male, age 6 weeks
# measurement-parameters: in vivo, po, 0 mg/kg, 6 h, tissue Kidney, route gavage, dose level Control
observable: KIDNEY_R (g)
Give the quantity in g, number only.

compound	recorded-result
CC(CN1c2ccccc2Sc2ccccc21)N(C)C (stereo not given) [PROMETHAZINE]	1
CN(C)[C@@H]1C(O)=C(C(N)=O)C(=O)[C@@]2(O)C(O)=C3C(=O)c4c(O)cccc4[C@@](C)(O)[C@H]3C[C@@H]12 [TETRACYCLINE]	0.8
CCOC(=O)[C@H](CCc1ccccc1)N[C@@H](C)C(=O)N1CCC[C@H]1C(=O)O	0.9

Quick one: KIDNEY_R for CC(=O)Nc1nnc(S(N)(=O)=O)s1 [ACETAZOLAMIDE] ?
0.9

Quick one: KIDNEY_R for CN1C(C(=O)Nc2ccccn2)=C(O)c2sc(Cl)cc2S1(=O)=O [LORNOXICAM] ?
1

Quick one: KIDNEY_R for C#C[C@]1(O)CC[C@H]2[C@@H]3CCC4=Cc5oncc5C[C@]4(C)[C@H]3CC[C@@]21C [DANAZOL] ?
1

Quick one: KIDNEY_R for C1CCC(C(CC2CCCCN2)C2CCCCC2)CC1 (stereo not given) [PERHEXILINE] ?
1

Quick one: KIDNEY_R for Cc1cccc(Nc2ccccc2C(=O)O)c1C [MEFENAMIC ACID] ?
1

Quick one: KIDNEY_R for Clc1c(Cl)c(Cl)c(Cl)c(Cl)c1Cl [PERCHLOROBENZENE] ?
1

Quick one: KIDNEY_R for COc1cc([C@@H]2c3cc4c(cc3[C@@H](O[C@@H]3O[C@@H]5CO[C@@H](C)O[C@H]5[C@H](O)[C@H]3O)[C@H]3COC(=O)[C@H]23)OCO4)cc(OC)c1O [ETOPOSIDE] ?
0.9

----------
Below: a set of entries, each annotated with reported K.
# Species on record: Rattus norvegicus
# test-name: Open TG-GATES - Regimen: Single
# Format: toxicity, organism-based, Sprague-Dawley
# Design: regimen Single, gender Male, age 6 weeks
# measurement-parameters: in vivo, po, 0 mg/kg, 3 h, tissue Plasma, route gavage, dose level Control
Give the quantity in meq/L, number only.

Consider the following illustrative entries.
compound	K [meq/L]
COc1cc([C@@H]2c3cc4c(cc3[C@@H](O[C@@H]3O[C@@H]5CO[C@@H](C)O[C@H]5[C@H](O)[C@H]3O)[C@H]3COC(=O)[C@H]23)OCO4)cc(OC)c1O [ETOPOSIDE]	4.7
Cc1cccc(Nc2ccccc2C(=O)O)c1C [MEFENAMIC ACID]	4.1

Quick one: K for CN(C)[C@@H]1C(O)=C(C(N)=O)C(=O)[C@@]2(O)C(O)=C3C(=O)c4c(O)cccc4[C@@](C)(O)[C@H]3C[C@@H]12 [TETRACYCLINE] ?
5.2

----------
# Species: Rattus norvegicus
# test-name: Open TG-GATES - Regimen: Single
# Format: toxicity, organism-based, Sprague-Dawley
# Parameters: regimen Single, gender Male, age 6 weeks
# measurement-parameters: in vivo, po, 0 mg/kg, 6 h, tissue Plasma, route gavage, dose level Control
observable: TP (g/dL)
Give the quantity in g/dL, number only.

compound	observable	units	recorded-result
CN(C)[C@@H]1C(O)=C(C(N)=O)C(=O)[C@@]2(O)C(O)=C3C(=O)c4c(O)cccc4[C@@](C)(O)[C@H]3C[C@@H]12	TP	g/dL	5.3
CCOC(=O)[C@H](CCc1ccccc1)N[C@@H](C)C(=O)N1CCC[C@H]1C(=O)O	TP	g/dL	5.4
CC(=O)Nc1nnc(S(N)(=O)=O)s1 [ACETAZOLAMIDE]	TP	g/dL	5.3

As a next step, examine the compound that follows.
Quick one: TP for COc1cc([C@@H]2c3cc4c(cc3[C@@H](O[C@@H]3O[C@@H]5CO[C@@H](C)O[C@H]5[C@H](O)[C@H]3O)[C@H]3COC(=O)[C@H]23)OCO4)cc(OC)c1O [ETOPOSIDE] ?
5.2

----------
# Species: Rattus norvegicus
# test-name: Open TG-GATES - Regimen: Single
# Assay type: toxicity, organism-based, Sprague-Dawley
# Set-up: regimen Single, gender Male, age 6 weeks
# measurement-parameters: in vivo, po, 0 mg/kg, 9 h, tissue Plasma, route gavage, dose level Control
observable: TP (g/dL)
Give the quantity in g/dL, number only.

Consider the following illustrative entries.
compound	units	recorded-result
CN1C(C(=O)Nc2ccccn2)=C(O)c2sc(Cl)cc2S1(=O)=O	g/dL	5.6
COc1cc([C@@H]2c3cc4c(cc3[C@@H](O[C@@H]3O[C@@H]5CO[C@@H](C)O[C@H]5[C@H](O)[C@H]3O)[C@H]3COC(=O)[C@H]23)OCO4)cc(OC)c1O [ETOPOSIDE]	g/dL	5.4
CC(=O)Nc1nnc(S(N)(=O)=O)s1 [ACETAZOLAMIDE]	g/dL	5.4

Quick one: TP for `CCOC(=O)[C@H](CCc1ccccc1)N[C@@H](C)C(=O)N1CCC[C@H]1C(=O)O` ?
5.5

Quick one: TP for `C#C[C@]1(O)CC[C@H]2[C@@H]3CCC4=Cc5oncc5C[C@]4(C)[C@H]3CC[C@@]21C` ?
5.4

----------
# Species: Rattus norvegicus
# test-name: Open TG-GATES - Regimen: Single
# Format: toxicity, organism-based, Sprague-Dawley
# Parameters: regimen Single, gender Male, age 6 weeks
# measurement-parameters: in vivo, po, 0 mg/kg, 24 h, tissue Plasma, route gavage, dose level Control
observable: IP (mg/dL)
Give the quantity in mg/dL, number only.

Consider the following illustrative entries.
molecule	IP [mg/dL]
C1CCC(C(CC2CCCCN2)C2CCCCC2)CC1 (stereo not drawn)	7.1
CC(CN1c2ccccc2Sc2ccccc21)N(C)C (stereo not drawn)	7.2
O=[N+]([O-])c1ccc2c(c1)Cc1ccccc1-2	6.8

Quick one: IP for `CN(C)[C@@H]1C(O)=C(C(N)=O)C(=O)[C@@]2(O)C(O)=C3C(=O)c4c(O)cccc4[C@@](C)(O)[C@H]3C[C@@H]12` ?
9

Quick one: IP for `Clc1c(Cl)c(Cl)c(Cl)c(Cl)c1Cl` ?
7.5

Quick one: IP for COc1cc([C@@H]2c3cc4c(cc3[C@@H](O[C@@H]3O[C@@H]5CO[C@@H](C)O[C@H]5[C@H](O)[C@H]3O)[C@H]3COC(=O)[C@H]23)OCO4)cc(OC)c1O [ETOPOSIDE] ?
7.7

Quick one: IP for `Cc1cccc(Nc2ccccc2C(=O)O)c1C` ?
7.9

Quick one: IP for `C#C[C@]1(O)CC[C@H]2[C@@H]3CCC4=Cc5oncc5C[C@]4(C)[C@H]3CC[C@@]21C` ?
7.8
